- STUDY SYSTEM: Complement component 3a receptor 1, isoform CRA_a (Homo sapiens)
- Sequence (A8K2H7 whole entry): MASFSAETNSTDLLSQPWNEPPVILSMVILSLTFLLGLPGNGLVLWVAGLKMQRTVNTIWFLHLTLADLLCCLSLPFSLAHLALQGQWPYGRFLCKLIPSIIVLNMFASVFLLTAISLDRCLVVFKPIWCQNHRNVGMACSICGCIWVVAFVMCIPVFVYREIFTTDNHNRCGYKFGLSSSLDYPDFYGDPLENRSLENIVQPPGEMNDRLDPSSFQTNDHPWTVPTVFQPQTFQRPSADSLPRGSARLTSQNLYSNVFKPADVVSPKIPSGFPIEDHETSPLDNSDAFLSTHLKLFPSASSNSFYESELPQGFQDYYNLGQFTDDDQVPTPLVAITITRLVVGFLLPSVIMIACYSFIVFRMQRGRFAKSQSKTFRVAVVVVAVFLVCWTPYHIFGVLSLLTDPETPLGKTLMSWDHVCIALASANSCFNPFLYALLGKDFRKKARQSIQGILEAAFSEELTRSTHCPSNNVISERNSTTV
- TEST: Agonist activity at human C3AR1 expressed in […] by FLIPR assay
Listing of recorded EC50 by entry.

{"SMILES CODE": "CCCCc1cn(Cc2ccc(-c3ccccc3C(=O)O)cc2)c2cccc(SC)c2c1=O", "UNIT OF MEASUREMENT": "nM", "EC50": 530}
{"SMILES CODE": "CCCc1nc(Br)c(S(C)(=O)=O)n1Cc1ccc(-c2ccccc2-c2nn[nH]n2)cc1", "UNIT OF MEASUREMENT": "nM", "EC50": 2}
{"SMILES CODE": "CCCCc1nc2cccc(CCCl)c2n1Cc1ccc(-c2ccccc2C(=O)O)cc1", "UNIT OF MEASUREMENT": "nM", "EC50": 310}
{"SMILES CODE": "CCCCn1c(Cc2ccccc2)nc2cc(/C(=C/C(=O)O)c3ccccc3)ccc21", "UNIT OF MEASUREMENT": "nM", "EC50": 2.7}
